# Test system: KRAS PDC multicell spheroid viability;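 further: spheroids exposed to compounds for 7 days; 100% = DMSO vehicle control viability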
# Assay details: Anticancer human tumor 825966-067-R-J1-PDC patient-derived colon carcinoma cell line growth inhibition [KRAS2]
# Settings: second compound 0.1 µM; first compound 0.316 µM; active compounds read low
Classify: label 1 when viability, T/C is strictly less than 90%; label 0 when viability, T/C is not.

compound="CCNC(=O)CC1N=C(c2ccc(Cl)cc2)c2cc(OC)ccc2-n2c(C)nnc21 (stereo not given) + CNCc1ccccc1-c1csc(C(C)Nc2nc(C)nc3cc(OC)c(OC)cc23)c1" class_label="label 0"
compound="Cn1nccc1Nc1nccc(-c2cc3c(s2)C(C)(C)N(CCN2CCOCC2)C3=O)n1 + C=CC(=O)N1CCN(c2nc(=O)n(-c3c(C)ccnc3C(C)C)c3nc(-c4c(O)cccc4F)c(F)cc23)C(C)C1" class_label="label 0"
compound="COC(=O)c1ccc2c(C(=Nc3ccc(N(C)C(=O)CN4CCN(C)CC4)cc3)c3ccccc3)c(O)[nH]c2c1 + C=CC(=O)N1CCN(c2nc(=O)n(-c3c(C)ccnc3C(C)C)c3nc(-c4c(O)cccc4F)c(F)cc23)C(C)C1" class_label="label 1"
compound="CC(=O)OC12COC1CC(O)C1(C)C(=O)C(O)C3=C(C)C(OC(=O)C(O)C(NC(=O)OC(C)(C)C)c4ccccc4)CC(O)(C(OC(=O)c4ccccc4)C21)C3(C)C (stereo not given) + COc1cc2nc(C)nc(NC(C)c3cc(N)cc(C(F)(F)F)c3)c2cc1OC1CCOC1" class_label="label 1"
compound="Cn1nccc1Nc1nccc(-c2cc3c(s2)C(C)(C)N(CCN2CCOCC2)C3=O)n1 + CNCc1ccccc1-c1csc(C(C)Nc2nc(C)nc3cc(OC)c(OC)cc23)c1" class_label="label 0"
compound="COC(=O)c1ccc2c(C(=Nc3ccc(N(C)C(=O)CN4CCN(C)CC4)cc3)c3ccccc3)c(O)[nH]c2c1 + CC1OCC2(CCN(c3cnc(Sc4ccnc(N)c4Cl)c(N)n3)CC2)C1N" class_label="label 1"
compound="COc1cc(Nc2ncc3c(n2)-c2ccc(Cl)cc2C(c2c(F)cccc2OC)=NC3)ccc1C(=O)O + C=CC(=O)N1CCN(c2nc(OCC3CCCN3C)nc3c2CCN(c2cccc4cccc(C)c24)C3)CC1CC#N" class_label="label 0"
compound="CC1(C)CCC(CN2CCN(c3ccc(C(=O)NS(=O)(=O)c4ccc(NCC5CCOCC5)c([N+](=O)[O-])c4)c(Oc4cnc5[nH]ccc5c4)c3)CC2)=C(c2ccc(Cl)cc2)C1 + C=CC(=O)N1CCN(c2nc(=O)n(-c3c(C)ccnc3C(C)C)c3nc(-c4c(O)cccc4F)c(F)cc23)C(C)C1" class_label="label 0"
compound="COc1cc2nccc(Oc3ccc(NC(=O)C4(C(=O)Nc5ccc(F)cc5)CC4)cc3)c2cc1OC + CNCc1ccccc1-c1csc(C(C)Nc2nc(C)nc3cc(OC)c(OC)cc23)c1" class_label="label 0"
compound="CC(=O)OC12COC1CC(O)C1(C)C(=O)C(O)C3=C(C)C(OC(=O)C(O)C(NC(=O)OC(C)(C)C)c4ccccc4)CC(O)(C(OC(=O)c4ccccc4)C21)C3(C)C (stereo not given) + CNCc1ccccc1-c1csc(C(C)Nc2nc(C)nc3cc(OC)c(OC)cc23)c1" class_label="label 1"
